# targetDesc: T1, PD-L1-Fc (PD-L1 antigen protein, extracellular region Met1-Thr239 fused to human Fc) (human, UniProt Q9NZQ7 19-239)
# T1 construct: range 1-239; the secreted protein lacks it; also called PD-L1-Fc antigen; pCEP4-PDL1-Fc product; not shown: human Fc fragment of the pCEP4-Fc vector
# T1 sequence (Q9NZQ7 19-239): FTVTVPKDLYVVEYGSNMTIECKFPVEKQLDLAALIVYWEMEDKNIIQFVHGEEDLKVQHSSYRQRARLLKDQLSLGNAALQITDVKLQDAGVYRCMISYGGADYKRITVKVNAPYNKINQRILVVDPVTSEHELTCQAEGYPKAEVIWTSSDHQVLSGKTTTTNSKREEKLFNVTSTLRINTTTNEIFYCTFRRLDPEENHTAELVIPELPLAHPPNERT
# methodSummary: BLI (Octet); PD-1-coated biosensor dipped in a mix of PD-L1 antigen protein and antibody; KD from the Octet software
valueKind: Kd

Give its Kd value. Item: KL001 (PL110) (antibody, V domains shown, IgG (VH-CH1-hinge-CH2-CH3 and VL-Ck); also called KL001 clone) VH: QVQLVESGAEVKKPGSSVKVSCKASGGTFSSYAISWVRQAPGQGLEWMGRIIPILGIANYAQKFQGRVTVTADKSTSTAYMELSSLRSEDTAVYYCARSGYSYAYGSFDYWGQGTLVTVSS VL: QLVLTQPPSVSGAPGQTVTISCTGPTIGAGYDVHWYQQLPGAAPKLLIYGNLNRPSGVPDRFSGSKSGTSASLAITDLQAEDEADYYCQSYDSRLGVVFGGGTKLTVLR
0.0584 nM

Give its Kd value. Item: KL001-06 (antibody, V domains shown) VH: QVQLVESGAEVKKPGSSVKVSCKASGGTFSSYAISWVRQAPGQGLEWMGRIIPILGIANYAQKFQGRVTVTADKSTSTAYMELSSLRSEDTAVYYCARSGYGYAYGSFDVWGQGTLVTVSS VL: QLVLTQPPSVSGAPGQTVTISCTGPTIGAGYDVHWYQQLPGAAPKLLIYGNLNRPSGVPDRFSGSKSGTSASLAITDLQAEDEADYYCQSYDSRLGVVFGGGTKLTVL
0.0169 nM

Give its Kd value. Item: KL001-24 (antibody, V domains shown) VH: QVQLVESGAEVKKPGSSVKVSCKASGGTFSSYAISWVRQAPGQGLEWMGRIIPILGQANYAQKFQGRVTVTADKSTSTAYMELSSLRSEDTAVYYCARSGYGYAYGSFDYWGQGTLVTVSS VL: QLVLTQPPSVSGAPGQTVTISCTGPTIGAGFDVHWYQQLPGAAPKLLIYGNLNRPSGVPDRFSGSKSGTSASLAITDLQAEDEADYYCQSYDSRLGVVFGGGTKLTVL
0.0408 nM

Give its Kd value. Item: KL001-15 (antibody, V domains shown) VH: QVQLVESGAEVKKPGSSVKVSCKASGGTFSSYAISWVRQAPGQGLEWMGRIIPILGIANYAQKFQGRVTVTADKSTSTAYMELSSLRSEDTAVYYCARSGYGYAYGSFDYWGQGTLVTVSS VL: QLVLTQPPSVSGAPGQTVTISCTGPTIQAGYDVHWYQQLPGAAPKLLIYGNLNRPSGVPDRFSGSKSGTSASLAITDLQAEDEADYYCQSYDSRLGVVFGGGTKLTVL
0.0058 nM

Give its Kd value. Item: KL001-07 (antibody, V domains shown) VH: QVQLVESGAEVKKPGSSVKVSCKASGGTFSSYAISWVRQAPGQGLEWMGRQIPILGIANYAQKFQGRVTVTADKSTSTAYMELSSLRSEDTAVYYCARSGYGYAYGSFDYWGQGTLVTVSS VL: QLVLTQPPSVSGAPGQTVTISCTGPTIGAGYDVHWYQQLPGAAPKLLIYGNLNRPSGVPDRFSGSKSGTSASLAITDLQAEDEADYYCQSYDSRLGVVFGGGTKLTVL
0.0137 nM
